TARGET_DESC: Ubiquitin carboxyl-terminal hydrolase isozyme L1 (Homo sapiens) (UniProt P09936)
Sequence (P09936 whole entry, looked up): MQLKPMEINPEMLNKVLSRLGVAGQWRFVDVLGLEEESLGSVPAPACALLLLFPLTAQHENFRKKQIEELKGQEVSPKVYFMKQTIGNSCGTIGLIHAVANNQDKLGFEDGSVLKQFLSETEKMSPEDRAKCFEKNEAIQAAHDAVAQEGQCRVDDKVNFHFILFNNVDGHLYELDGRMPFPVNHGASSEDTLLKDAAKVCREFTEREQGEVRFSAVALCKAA
PROTOCOL_NOTES: biochemical concentration-response of UCH-L1 DUB inhibitors, hit verification (AID 1645867)
RUN_CONDITIONS: recombinant UCHL1 deubiquitinase activity assay
Calls of active or inactive are those of the source. No rule for the calls is given here.
Field 'call' accepts YES (active), NO (inactive)

Below are worked cases with known answers.
COMPOUND	TARGET_DESC	LABEL_CLASS
O=C(NCc1ccco1)c1ccc(Cn2c(SCc3ccccc3)nc3ccncc32)cc1	Ubiquitin carboxyl-terminal hydrolase isozyme L1 (Homo sapiens) (UniProt P09936)	NO
Cc1nn(-c2ccc(F)cc2)c(C)c1S(=O)(=O)N1CCN(c2ccccn2)CC1	Ubiquitin carboxyl-terminal hydrolase isozyme L1 (Homo sapiens) (UniProt P09936)	NO
O=C(COc1ccc(N2CC(C(=O)NCc3ccc4c(c3)OCO4)CC2=O)cc1)Nc1ccc(Cl)cc1 (stereo unspecified)	Ubiquitin carboxyl-terminal hydrolase isozyme L1 (Homo sapiens) (UniProt P09936)	NO
FC(F)(F)c1ccc(Nc2nnnc3ccccc23)cc1	Ubiquitin carboxyl-terminal hydrolase isozyme L1 (Homo sapiens) (UniProt P09936)	NO
O=C(COc1ccc(Cl)cc1Cl)Nc1ccc2[nH]c(=O)[nH]c2c1	Ubiquitin carboxyl-terminal hydrolase isozyme L1 (Homo sapiens) (UniProt P09936)	NO
COc1c(O)cc(CC(=O)O)c(C(C)=O)c1O	Ubiquitin carboxyl-terminal hydrolase isozyme L1 (Homo sapiens) (UniProt P09936)	YES

Hi, sorry to bother you, what did the test record for `NC(=O)C1(N2CCCCC2)CCN(CC(=O)Nc2cc(Cl)ccc2Cl)CC1` ? NO

Recorded call for CCC(C)N1CNc2c(c(=O)[nH]c(=O)n2Cc2ccco2)C1 (stereo unspecified) ? NO

Kindly provide the recorded test outcome for the following compound: Nc1cccc(C(=O)CC2(O)C(=O)N(Cc3ccc(Cl)cc3)c3ccccc32)c1 (stereo unspecified) NO

Given `CCOc1ccc(CC(=O)Nc2ccc(-c3cn4cccnc4n3)cc2)cc1` , state the outcome it received in this test. NO

Which result was noted for this compound in the test: `O=C(c1cncs1)N1CCc2[nH]nc(Nc3ccccc3)c2C1` NO

====

TARGET_DESC: Ubiquitin carboxyl-terminal hydrolase isozyme L1 (Homo sapiens)
PROTOCOL_NOTES: biochemical concentration-response of UCH-L1 DUB inhibitors, hit verification (AID 1645867)
RUN_CONDITIONS: recombinant UCHL1 deubiquitinase activity assay
Activity calls are given as the source filed them. How the calls were made is not given here.
Use one of these outcomes when replying: class 1 (active), class 0 (inactive)

Here are 4 compounds together with their reported answers.
COMPOUND	LABEL_CLASS
Cc1ccc(Cn2nc(C)c(C(=O)N3CCCc4cc(C)ccc43)c2C)cc1	class 0
Cc1ccc(NCc2cc3c(-c4cccc(F)c4)nn(-c4ccccc4)c3[nH]c2=O)cc1C	class 1
COc1ccc(NC(=O)Cn2c(C)cc(=O)n3nc(-c4cccc(C)c4)nc23)cc1	class 0
COc1ccc(NC(=O)[C@H](C)NC(=O)c2cc3c(OC)cccc3[nH]2)cc1Cl	class 0

Turning to the following compound.
Just curious, what result did `Cn1c(=O)c(N2CCOCC2)nc2c(OCc3ccccc3)nc(N)nc21` get here? class 0

====

TARGET_DESC: Ubiquitin carboxyl-terminal hydrolase isozyme L1 (Homo sapiens)
PROTOCOL_NOTES: biochemical concentration-response of UCH-L1 DUB inhibitors, hit verification (AID 1645867)
RUN_CONDITIONS: recombinant UCHL1 deubiquitinase activity assay
Activity calls are given as the source filed them. The rule behind the calls is not given here.
# output must be one of true for active, false for inactive

MOLECULE	LABEL_CLASS
COC(=O)Nc1cccn(Cc2c(Cl)cccc2Cl)c1=O	false
COc1ccc(CNC(=O)Nc2cccc3ccccc23)cc1	false
COc1ccc(-c2cc3nc([C@H](C)NC(=O)Cc4cc(F)ccc4F)nn3cn2)cc1	false
Cn1c2ccccc2c(=O)c2c(=O)n(-c3cccc(Cl)c3)c(-c3cccs3)nc21	false
Cc1nnc(-c2ccc3ccn(CC(=O)N4CCN(c5ccccc5)CC4)c3c2)o1	false

# fetch the recorded call for `Cc1ccc(C(=O)N[C@@H](Cc2ccccc2)C(=O)N2CCC3(CC2)NCCc2[nH]cnc23)cc1C` here false

Could you check what this test reported for `Cn1c(=O)c2ncnnc2n(C)c1=O` ? true

Tell me the recorded outcome of this test for CCC(C(=O)Nc1ncc2c(n1)CC(c1ccccc1)CC2=O)c1ccccc1 (stereo not given) . false

What is the recorded call for this molecule in the test? `Cc1ccc(C)c(Cn2cnc3c(nnn3-c3cccc(F)c3)c2=O)c1` false

Answer briefly: the call reported for `CC(C)CC[C@H]1O[C@@H](CC(=O)O)Cc2cc3c(c(O)c21)C(=O)c1sc(=O)n(C)c1C3=O` in this assay. false

====

TARGET_DESC: UniProt:P09936
PROTOCOL_NOTES: biochemical concentration-response of UCH-L1 DUB inhibitors, hit verification (AID 1645867)
RUN_CONDITIONS: recombinant UCHL1 deubiquitinase activity assay
Activity calls are given as the source filed them. How the calls were made is not given here.
Pick one and only one: True = active, False = inactive

MOLECULE	LABEL_CLASS
O=c1ccc(-c2cc3ccccc3o2)cn1Cc1ccccc1-c1ccccc1	True
O=c1[nH]c(=O)n(Cc2ccccc2)c2c1CN(CCc1ccccc1)CN2	False
CC(C)(C)n1nc2c(c1NC(=O)Cc1ccccc1)CSC2	False
COc1cc(NC(=O)Cn2cc(C(=O)c3ccccc3)c(=O)c3cc(Cl)ccc32)cc(OC)c1	False
COC1=C(C2=C(OC)C(=O)c3cc4c(c(O)c3C2=O)C(=O)OC(C)C4)C(=O)c2c(cc3c(c2O)C(=O)OC(C)C3)C1=O (stereo not given)	True
O=C(Nc1ccc(-c2cn3ccsc3n2)cc1)c1ccc(Cl)c([N+](=O)[O-])c1	False

Given `Cc1ccc(-n2ccn3c(CCC(=O)NCc4ccc(F)cc4)nnc3c2=O)cc1C` , state the outcome it received in this test. False

How was Cc1ccc(C2SCC(=O)Nc3c2c(=O)[nH]n3C2CCCCC2)cc1 (stereo not given) classified in this test? False

Hi, do you know how `O=C(Cn1c(=O)c2ccccc2c2ccccc21)Nc1ccc2c(c1)OCO2` came out in this test? False

# outcome recorded in this test, key = `O=C(c1cccc2ncccc12)N1CCN(c2ccnc3cc(Cl)ccc23)CC1` False

====

TARGET_DESC: UniProt P09936
PROTOCOL_NOTES: biochemical concentration-response of UCH-L1 DUB inhibitors, hit verification (AID 1645867)
RUN_CONDITIONS: recombinant UCHL1 deubiquitinase activity assay
Activity calls are given as the source filed them. No rule for the calls is given here.
Listing of entries alongside the reported IC50.

Field: example entries. Status: answers known.
COMPOUND	IC50
CC(C)=CCC(O)C1=CC(=O)c2c(O)ccc(O)c2C1=O (stereo not given)	3.09 µM
COc1ccc(-c2cc3nc([C@H](C)NC(=O)Cc4ccccc4C)nn3cn2)cc1	> 25 µM (inactive)
Cc1cccc(NC(=O)Cn2cccc(S(=O)(=O)N3CCC(C)CC3)c2=O)c1C	> 25 µM (inactive)

Which value of IC50 has been reported for `CCc1ccc(NC(=O)Cn2c(=O)n(Cc3ccccc3)c(=O)c3nn(CC)cc32)cc1` in the records? > 25 µM (inactive)

Return reported IC50; argument: `CSc1ncccc1C(=O)NC1(O)C(=O)c2ccccc2C1=O` 18.3 µM

====

TARGET_DESC: Ubiquitin carboxyl-terminal hydrolase isozyme L1 (Homo sapiens) (UniProt P09936)
PROTOCOL_NOTES: biochemical concentration-response of UCH-L1 DUB inhibitors, hit verification (AID 1645867)
RUN_CONDITIONS: recombinant UCHL1 deubiquitinase activity assay
Activity calls are given as the source filed them. How the calls were made is not given here.
Hello, when you answer, please use one of the following outcomes: TRUE = active, FALSE = inactive

What call does the record list for COC(=O)C1(Cc2ccc(O)cc2)OC(=O)C(O)=C1c1ccc(O)cc1 (stereo unspecified) ? TRUE

Hi, do you know how O=C1CC2(C(=O)N(Cc3ccc(Cl)cc3)c3ccccc32)c2cn[nH]c2N1 (stereo unspecified) came out in this test? FALSE

Record request — test call for CC(C)CC1NC(=O)C2CCCN2C1=O (stereo unspecified) TRUE

Write down the call the test reported for this molecule. Item: CC(C)c1ccc(C2CC(=O)c3cn[nH]c3C2)cc1 (stereo unspecified) FALSE

Returns: the outcome recorded for `Cc1ccccc1CCNCc1c(C(=O)O)n(Cc2ccc(Cl)cc2)c2ccccc12` in this assay. FALSE

Status in this test for `O=C(c1ccc(Cl)cc1)N(c1ccccn1)C1CCCCC1` ? FALSE

====

TARGET_DESC: Ubiquitin carboxyl-terminal hydrolase isozyme L1 (Homo sapiens)
PROTOCOL_NOTES: biochemical concentration-response of UCH-L1 DUB inhibitors, hit verification (AID 1645867)
RUN_CONDITIONS: recombinant UCHL1 deubiquitinase activity assay
Activity calls are given as the source filed them. How the calls were made is not given here.
Allowed answers: active, inactive

Worked set:
COMPOUND	LABEL_CLASS
CCc1[nH]c(=O)cc2cc(OC)c(OC)cc12	active
CCOC(=O)c1ccc(Oc2sccc2[N+](=O)[O-])cc1	inactive
O=C1CC(c2ccco2)Cc2[nH]c(=O)c(-c3nc(-c4ccc(Cl)cc4)cs3)cc21 (stereo not given)	inactive

Could you please tell me the result logged for `COc1ccc(CNC(=O)c2ccc3c(=O)nc4c(-c5cccc(C)c5)n[nH]n4c3c2)cc1` in this assay? inactive

For this compound, state the assay outcome: `N#Cc1cccc(C(=O)Nc2cccc(Oc3ccccc3)c2)c1` inactive

Which outcome was assigned to `Cc1noc(C)c1CN1CCn2c1nc(-c1ccccc1)cc2=O` in this test? inactive

Dear colleague, could you share the recorded outcome for `C=C/C(C)=C/[C@@]1(C)SC(=O)C(C)=C1O` when you have a moment? active

Value source: PubChem BioAssay AID1645867
